# TESTED TARGET: FAAH (Homo sapiens)
# Sequence (O00519 1-579): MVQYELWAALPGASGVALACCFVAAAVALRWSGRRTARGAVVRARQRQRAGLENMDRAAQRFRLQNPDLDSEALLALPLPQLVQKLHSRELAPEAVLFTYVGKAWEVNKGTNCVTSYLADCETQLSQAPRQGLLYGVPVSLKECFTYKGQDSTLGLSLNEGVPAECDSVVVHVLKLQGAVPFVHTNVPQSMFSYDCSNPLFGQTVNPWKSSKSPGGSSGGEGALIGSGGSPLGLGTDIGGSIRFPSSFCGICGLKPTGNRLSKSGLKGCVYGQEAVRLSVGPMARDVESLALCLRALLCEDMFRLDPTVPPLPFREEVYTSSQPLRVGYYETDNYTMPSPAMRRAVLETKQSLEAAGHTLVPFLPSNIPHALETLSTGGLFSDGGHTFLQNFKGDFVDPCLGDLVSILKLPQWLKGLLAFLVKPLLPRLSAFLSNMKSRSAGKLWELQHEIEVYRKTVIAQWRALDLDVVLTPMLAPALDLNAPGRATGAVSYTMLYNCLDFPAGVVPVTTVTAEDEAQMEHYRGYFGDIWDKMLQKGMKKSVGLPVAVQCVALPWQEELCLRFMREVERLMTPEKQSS
Examples of compounds with documented IC50 follow.
Reply with just the number (in nM).

Look over these answered cases.
Report IC50 for COc1cc(NC(=O)C(=O)c2cc(C)n(Cc3ccc(Cl)cc3)c2-c2ccccc2)ccn1 [Compound I-23] please.
2560

Report IC50 for COc1cc(NC(=O)C(=O)c2c(C)n(Cc3ccc(Cl)cc3)c3ccsc23)ccn1 [Compound I-07] please.
18

Report IC50 for Cc1cc(C(=O)C(=O)Nc2ccnc(Cl)c2)c(C)n1Cc1ccc(Cl)cc1 [Compound I-28] please.
897

Report IC50 for Cc1c(C(=O)C(=O)Nc2cccc(Cl)c2)c2c(n1Cc1ccc(Cl)cc1)CCCC2 [Compound I-16] please.
119

Report IC50 for Cc1cc2c(s1)c(C(=O)C(=O)Nc1ccncc1)c(C)n2Cc1ccc(Cl)cc1 [Compound I-04] please.
51

---
Report IC50 for COc1cc(NC(=O)C(=O)c2cc(C)n(Cc3ccc(Cl)cc3)c2C)ccn1 [Compound I-01] please.
542

Report IC50 for Cc1c(C(=O)C(=O)Nc2cccc(Cl)c2)c2c(n1Cc1ccc(Cl)cc1)CCC(C)(C)C2 [Compound I-14] please.
202

Report IC50 for COc1cc(NC(=O)C(=O)c2c(C)n(Cc3ccc(Cl)cc3)c3cc(C)sc23)ccn1 [Compound I-05] please.
4

Report IC50 for Cc1c(C(=O)C(=O)Nc2cccc(Cl)c2)c2c(n1Cc1ccc(Cl)cc1)CCCCCC2 [Compound I-10] please.
605

Report IC50 for COc1cc(NC(=O)C(=O)c2c(C)n(Cc3ccc(Cl)cc3)c3sccc23)ccn1 [Compound I-09] please.
31

Report IC50 for Cc1c(C(=O)C(=O)Nc2cccc(Cl)c2)c2sccc2n1Cc1ccc(Cl)cc1 [Compound I-06] please.
1500

Report IC50 for Cc1c(C(=O)C(=O)Nc2cccc(Cl)c2)c2ccsc2n1Cc1ccc(Cl)cc1 [Compound I-08] please.
797

---

Examples of compounds with documented IC50 follow.
# TESTED TARGET: FAAH (Mus musculus)
# Construct: Whole brain tissue from these mice was collected
# Sequence (O08914 1-579): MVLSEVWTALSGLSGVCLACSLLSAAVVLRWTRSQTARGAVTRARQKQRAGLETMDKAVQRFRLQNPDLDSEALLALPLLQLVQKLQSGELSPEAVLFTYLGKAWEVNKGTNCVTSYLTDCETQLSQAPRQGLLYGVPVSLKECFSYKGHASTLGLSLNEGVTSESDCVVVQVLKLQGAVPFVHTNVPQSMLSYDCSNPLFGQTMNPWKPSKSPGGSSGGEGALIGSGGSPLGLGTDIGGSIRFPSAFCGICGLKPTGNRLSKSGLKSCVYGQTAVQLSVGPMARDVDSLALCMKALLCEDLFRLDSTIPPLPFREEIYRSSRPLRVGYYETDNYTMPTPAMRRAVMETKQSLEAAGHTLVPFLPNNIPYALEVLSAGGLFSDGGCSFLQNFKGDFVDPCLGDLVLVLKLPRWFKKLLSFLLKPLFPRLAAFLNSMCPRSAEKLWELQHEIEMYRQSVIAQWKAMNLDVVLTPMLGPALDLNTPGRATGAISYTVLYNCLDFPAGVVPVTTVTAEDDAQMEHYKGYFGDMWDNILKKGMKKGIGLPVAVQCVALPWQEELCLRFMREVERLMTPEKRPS
# MEASUREMENT PROTOCOL: FAAH inhibition, mouse brain membrane homogenate assay
# TEST PARAMETERS: average; FAAH extracted from mouse brain homogenate; read-out: Mouse Brain FAAH Extract IC50
# Procedure: Adult rats (Charles River CD strain, female, 200 g) were anaesthetized with isofluorane and rapidly decapitated. Each brain was quickly removed and chilled in tubes (3 brains per tube) on ice. About 25 mL of “homogenization buffer” (20 mM HEPES buffer, pH 7.0, with 1 mM MgCl2) was added to 15 to 20 g of brain. The brains were homogenized on ice for 1 minute using an Omni GLH homogenizer (Omni International, Marietta, Ga.). […]

Report IC50 for `Cc1c(C(=O)C(=O)Nc2cccc(Cl)c2)c2ccsc2n1Cc1ccc(Cl)cc1` please.
> 5000 nM

---
Report IC50 for `Cc1c(C(=O)C(=O)Nc2cccc(Cl)c2)c2c(n1Cc1ccc(Cl)cc1)CCCC2` please.
2080 nM

Report IC50 for `COc1cc(NC(=O)C(=O)c2c3c(n(Cc4ccc(Cl)cc4)c2C)CCCC3)ccn1` please.
9 nM

Report IC50 for `COc1cc(NC(=O)C(=O)c2c3c(n(Cc4ccc(Cl)cc4)c2C)CCC(C)(C)C3)ccn1` please.
7 nM
